Biological target: T1, biotinylated recombinant mouse IL-12Rβ2 (produced in-house) (mouse, UniProt P97378 24-637, randomly biotinylated)
T1 construct: also called mIL-12RB2; mouse IL-12RB2
T1 sequence: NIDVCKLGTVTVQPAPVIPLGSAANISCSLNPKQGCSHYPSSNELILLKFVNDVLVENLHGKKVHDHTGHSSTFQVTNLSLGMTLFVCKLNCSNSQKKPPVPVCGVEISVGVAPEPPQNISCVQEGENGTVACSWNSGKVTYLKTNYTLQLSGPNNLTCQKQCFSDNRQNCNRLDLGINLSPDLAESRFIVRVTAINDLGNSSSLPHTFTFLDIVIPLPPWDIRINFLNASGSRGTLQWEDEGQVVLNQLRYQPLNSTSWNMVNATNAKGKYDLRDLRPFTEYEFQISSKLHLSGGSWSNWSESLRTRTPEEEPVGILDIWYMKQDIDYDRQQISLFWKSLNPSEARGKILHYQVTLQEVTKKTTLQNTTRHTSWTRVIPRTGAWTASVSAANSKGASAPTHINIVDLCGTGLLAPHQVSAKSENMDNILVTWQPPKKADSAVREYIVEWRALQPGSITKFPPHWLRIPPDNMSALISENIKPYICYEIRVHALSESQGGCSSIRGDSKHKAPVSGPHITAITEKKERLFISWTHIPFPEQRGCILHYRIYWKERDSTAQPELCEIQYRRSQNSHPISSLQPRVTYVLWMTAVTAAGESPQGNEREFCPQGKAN
Test: ELISA, periplasmic extract on biotinylated mouse IL-12Rβ2; control streptavidin-coated blocked wells
experimental.endpoint: ELISA binding mIL-12RB2/control

binder: anti-IL-12Rβ2 VHH clone 3CAM10 (VHH, Tested as periplasmic extract; CDR3 group 25; also called 20507) VHH: QVQLQESGGGLVQAGGSLRLSCAASGRTFSDYPMAWFRQAPGKEREFVAGISNGGTAYYADSVKGRFTISRDNTRNTVYLQMNRLKVEDTAVYYCAAVHLLSNLRGADPHEADYWGQGTQVTVSS
value.reported: 40.9 ratio to control
//
binder: anti-IL-12Rβ2 VHH clone 3CRM95 (VHH, Tested as periplasmic extract; CDR3 group 44; also called 20465) VHH: QVQLQESGGGLVQAGDFLRLSCVFSGGTFGDYSMGWFRQAPGKEREFVAAIRWSGDSTQYAEAVKGRFTISRDNAKSTVYLQMSSLKPEDTAVYYCAADPSYYIGPNHTPSRYRDWGQGTQVTVSS
value.reported: 6.72 ratio to control
//
binder: anti-IL-12Rβ2 VHH clone 3CAM1 (VHH, Tested as periplasmic extract; CDR3 group 48) VHH: QVQLQESGGGLVQAGGSLRLSCAASGRTFGSHRMGWFRQAPGQEREFVAAIAWRGGTQYYTDSVKGRFTISRDNANNTVYLQMNSLKPEDAAVYYCVAGEGSSWGDITDPRRYVFWGQGTQVTVSS
value.reported: 3.3 ratio to control
//
binder: anti-IL-12Rβ2 VHH clone 2CAM56 (VHH, Tested as periplasmic extract; CDR3 group 28; also called 20490) VHH: QVQLQESGGGEVQAGGSLRLSCVASGRTFSVYTTGWFRQAPGKERELVAGMSGTRTYYADSVKGRFTISRDNAKNTVYLQMNSLKPDDTAVYYCAERRYGGPSLVWDEYDYRGQGTQVTVSS
value.reported: 5.21 ratio to control
//
binder: anti-IL-12Rβ2 VHH clone 2CRM40 (VHH, Tested as periplasmic extract; CDR3 group 24; also called 20448) VHH: QVQLQESGGGLVQTGGSLRLSCAASGRTYAMAWFRQAPGKEREFAAVIIGGDRTYYANSVKDRFTISRDNAKETVYLQMNNLKPEDTAVYYCAANRRLYNSGRGYSQSEYEYWGQGTQVTVSS
value.reported: 5.86 ratio to control
//
binder: anti-IL-12Rβ2 VHH clone 2CAM18 (VHH, Tested as periplasmic extract; CDR3 group 45; also called 20475) VHH: QVQLQESGGGLVQVGDSLKLSCVASGTTFSTHVMAWYRQAPGKQREWVASIDSAGTTNYKDAVKGRFTISRDNVKRTVYLQMNNLKPEDSAVYLCSIPSRNAWGQGTQVTVSS
value.reported: 3.22 ratio to control
//
binder: anti-IL-12Rβ2 VHH clone 2CAM12 (VHH, Tested as periplasmic extract; CDR3 group 19) VHH: QVQLQESGGGLVQAGGSLRLSCAASGRTFSWYRMGWFRQAPGKEREFVAGWYGVLTQYRDSVKGRFTISRDDAKNTVYLQMNSLKPEDTAVYYCAASLGGNYRSYEYDYWGQGTQVTVSS
value.reported: 3.38 ratio to control
//
binder: anti-IL-12Rβ2 VHH clone 2CAM9 (VHH, Tested as periplasmic extract; CDR3 group 19) VHH: QVQLQESGGGLVQAGMSLRLSCAASGLTFSWYRMGWFRQAPGKEREFVAGWYGVLTQYRDSVKGRFTISRDDAKNTVYLQMNSLKPEDTAVYYCAASLGGNYRSYEYDYWGQGTQVTVSS
value.reported: 8.27 ratio to control
//
binder: anti-IL-12Rβ2 VHH clone 2CAM47 (VHH, Tested as periplasmic extract; CDR3 group 27; also called 20487) VHH: QVQLQESGGGVVQEGASLRLSCAASGRNLSTYAMGWIRQAPGKEREFVAAISWAGSTTYYADSVKGRFIISRDNAKNTLNLQMNSLKPEDTAVYYCAAPPYVTTTYYATPPSDIRDYHYWGQGTQVTVSS
value.reported: 4.91 ratio to control
//
binder: anti-IL-12Rβ2 VHH clone 3CAM11 (VHH, Tested as periplasmic extract; CDR3 group 27; also called 20508) VHH: QVQLQESGGGLVQAGGSLRLSCAASGRNLSTYAMGWIRQAPGKEREFVAAISWAGSTTYYADSVKGRFIISRDNAKNTLNLQMNSLKPEDTAVYYCAAPPYVTTTYYATPPSDIRDYHYWGQGTQVTVSS
value.reported: 6.6 ratio to control

Query binder follows.
So what does the record say about ELISA binding mIL-12RB2/control for anti-IL-12Rβ2 VHH clone 2CAM45 (VHH, Tested as periplasmic extract; CDR3 group 47; also called 20485) VHH: QVQLQESGGGLVQAGGSLRLSCAASGFTFDDYAIGWFRQAPGKEREGISCISSSDYGTYYAGSVKGRFTISSDNAKNTVYLQMNSLKPEDTAVYYCAAEAISEYDCLGINYGMDYWGKGTQVTVSS ?
10.4 ratio to control
